Reported Moisture % values follow for various molecules
assay_name: Stability investigation of crystal forms A, B, C, D and the amorphous form of the compound of formula (1) (related substances by HPLC, moisture, XRD, DSC)
Format: physicochemical
settings: 0 day
Description: […] Determination of related substances: determined according to 0512 HPLC in General Principle (Volume IV) of Chinese Pharmacopoeia (2015 Version). Moisture determination: determined according to 2 Coulometric Titration in the First Method (Karl Fischer titration) of 0832 Moisture Determination Method in General Principle (Volume IV) of Chinese Pharmacopoeia (2015 Version). […]

{"molecule": "C[C@H]1CCN1c1nc(N2C[C@@H]3[C@@H](CC(=O)O)[C@@H]3C2)c2c(n1)C(F)(F)CC2 [Crystal form D]", "Moisture %": "0.066%"}
{"molecule": "C[C@H]1CCN1c1nc(N2C[C@@H]3[C@@H](CC(=O)O)[C@@H]3C2)c2c(n1)C(F)(F)CC2 [Crystal form A]", "Moisture %": "0.53%"}
{"molecule": "C[C@H]1CCN1c1nc(N2C[C@@H]3[C@@H](CC(=O)O)[C@@H]3C2)c2c(n1)C(F)(F)CC2 [Crystal form B]", "Moisture %": "0.17%"}
{"molecule": "C[C@H]1CCN1c1nc(N2C[C@@H]3[C@@H](CC(=O)O)[C@@H]3C2)c2c(n1)C(F)(F)CC2 [Crystal form C]", "Moisture %": "0.24%"}

Now examine the next entry.
Consider C[C@H]1CCN1c1nc(N2C[C@@H]3[C@@H](CC(=O)O)[C@@H]3C2)c2c(n1)C(F)(F)CC2 [Amorphous form] . Its measured Moisture % is 0.70%
